Entry source: ChEMBL document CHEMBL1201862

# Tested on: HT-29
# Test Description: NCI tumour cell line growth inhibition, 48 h
Active and inactive are the calls of the source. No stated cut-off is given here; in the data, active = GI50 up to about 1.1 µM and inactive = higher.
Would you kindly list GI50 for each of these molecules?

Return reported GI50 values for all items listed beneath this line.
1. CSc1nc(NC(C)C)c2c(n1)Sc1nc3ccccc3n1N=C2
2. COc1ccc(/C=C2\CCC(CN(C)C)C2=O)cc1 (stereo unspecified)
3. CCCCCCCCCC1CC(=O)NCC(=O)NC(C(C)C)C(=O)NC(CC(C)C)C(=O)NC(C)C(=O)NC(C(C)C)C(=O)O1 (stereo unspecified)
4. CN(CC(=O)O)Cc1c(O)c(Cl)cc(Cl)c1Cl
5. O=C(O)CNS(=O)(=O)c1ccc(NC(=O)c2ccc([N+](=O)[O-])cc2)cc1

Result:
1. 21 µM (inactive)
2. 3.5 µM (inactive)
3. 5.9 µM (inactive)
4. 33.2 µM (inactive)
5. > 100 µM (inactive)

Return reported GI50 values for all items listed beneath this line.
1. O1C2C1C1OC1C1OC1C1OC21 (stereo unspecified)
2. CCOC(=O)Nc1ccc(S(=O)(=O)Nn2cnnc2)cc1
3. Cc1nc2nn(C)cc2c(=O)n1/N=C/c1ccccc1
4. Cc1ccc(CSC(=N)Nc2ccccc2)cc1C
5. O=C1CC(n2cccc2)c2c(Br)sc(Br)c21 (stereo unspecified)
6. NC1=NN(c2ccccc2)C(=O)C1C(=O)C(=O)Nc1ccc(Cl)c(Cl)c1 (stereo unspecified)

Result:
1. > 100 µM (inactive)
2. 20.3 µM (inactive)
3. > 100 µM (inactive)
4. 19.1 µM (inactive)
5. 16.6 µM (inactive)
6. > 100 µM (inactive)

---

# Tested on: SF-539
# Test Description: NCI tumour cell line growth inhibition, 48 h
Calls of active or inactive are those of the source. Cut-off read from the data, not from the text of the source: active = GI50 up to about 1.1 µM and inactive = higher.
Return exactly one item of active, inactive

Some solved cases for reference:
>>> class_name("C[Si](C)(OCCS(=O)(=O)O)OC(=C1S(=O)(=O)OCCOS1(=O)=O)c1cccc2ccccc12")
"inactive"
>>> class_name("O=C1C=C(Nc2nc(O)cc(C(=O)O)n2)c2ccccc2C1=O")
"inactive"
>>> class_name("COc1ccc(C2S/C(=C\\c3ccc(O)cc3)C(=O)N2NC(=O)Cc2ccccc2)cc1 (stereo not given)")
"inactive"

Q: Which result was noted for this compound in the test: CCc1nn(S(=O)(=O)c2ccc(C)cc2)c2c1CS(=O)(=O)CC2
Result: inactive

Q: Hey, what did the test say about Cc1ccc(-c2cs/c(=N\c3c(C)n(C)n(-c4ccccc4)c3=O)n2CCO)cc1 ?
Result: inactive

Q: Returns: the outcome recorded for O=C(c1ccccc1)c1ccc2cccc(OC3OC(CO)C(O)C(O)C3O)c2n1 (stereo not given) in this assay.
Result: inactive

Q: # fetch the recorded call for N#Cc1cc2cc3c4c(c2oc1=O)CCCN4CCC3 here
Result: inactive

Q: Give the logged outcome of this assay for the following compound: Fc1ccc(F)c(/C=N/C23CC4CC(CC(C4)C2)C3)c1
Result: inactive

Q: Please state the recorded outcome for this compound: CCOP(=O)(C[S+](C)[O-])O[C@@H]1C[C@H](C)CC[C@H]1C(C)C (stereo not given in full)
Result: inactive

Q: Please indicate how the test categorized CC(=O)O[C@H]1CCn2c3c(c(C)c21)C(=O)C(N1CC1)=C(C)C3=O .
Result: inactive

Q: Would you mind telling me which call this test gave CN1CN(c2ccccc2)C2(CCN(CCC3COc4ccccc4O3)CC2)C1=O (stereo not given) ?
Result: inactive

Q: Can you look up the reported call for CCOC(=O)CC/C(C)=N\n1c(Cc2ccc(Cl)cc2)n[nH]c1=O for me?
Result: inactive

Q: Please state the recorded outcome for this compound: O=C(C(=O)n1ccc2ccccc21)n1ccc2ccccc21
Result: inactive

Q: Which outcome was entered for the compound Cc1cc(C)c2cc(N)c(Cl)nc2n1 in this test?
Result: inactive

Q: Which result was noted for this compound in the test: COc1ccc2oc(=N)c(C(N)=O)cc2c1
Result: inactive

---

# Test system: TK-10
# Test Description: NCI tumour cell line growth inhibition, 48 h
The source made the active and inactive calls. Cut-off read from the data, not from the text of the source: active = GI50 up to about 1.1 µM and inactive = higher.
Quantity: GI50

Take a look at these entries with their results.
>>> result("CC(=O)O[C@H]1CCn2c3c(c(C)c21)C(=O)C(N1CC1)=C(C)C3=O")
"> 10 µM (inactive)"
>>> result("O=[N+]([O-])/C(C(Cl)=C(Cl)Cl)=C(/Cl)Sc1ccccc1")
"2.67 µM (inactive)"
>>> result("COc1ccc(OC)c2c1CC(C(=O)O)(C(=O)O)CC2=O")
"> 100 µM (inactive)"
>>> result("COc1ccc(C(=O)O[C@H]2[C@@H]3C=CO[C@@H](OC4OC(CO)C(O)C(O)C4O)[C@@H]3[C@@]3(CO)O[C@@H]23)cc1O (stereo not given in full)")
"> 100 µM (inactive)"
>>> result("Cc1ccc(C2C(Cl)C(=O)N2n2cnc3ccccc3c2=O)cc1 (stereo not given)")
"> 100 µM (inactive)"

Please supply GI50 for each of the following items, keeping them in order.
1. CC1=C(Br)C(=O)C(C)=C(Br)C1=O.Cc1c(O)c(Br)c(C)c(O)c1Br
2. O=C(c1ccccc1)c1ccc2cccc(OC3OC(CO)C(O)C(O)C3O)c2n1 (stereo not given)
3. NS(=O)(=O)c1nnc(NC(=O)N(c2ccccc2)c2ccccc2)s1
4. N#Cc1cc2cc3c4c(c2oc1=O)CCCN4CCC3
5. C=CC1=CSNN1

Result:
["1.64 µM (inactive)", "> 100 µM (inactive)", "41.2 µM (inactive)", "> 100 µM (inactive)", "> 100 µM (inactive)"]

---

# Tested on: HOP-92
# Test Description: NCI tumour cell line growth inhibition, 48 h
The source made the active and inactive calls. No stated cut-off is given here; in the data, active = GI50 up to about 1.1 µM and inactive = higher.
Respond with a class label; see active, inactive

>>> class_name("O=C1CC(=O)NC(NN2C(=O)/C(=C/c3ccccc3)N=C2c2ccccc2)=N1")
"inactive"

Q: Per the records of this test, what outcome belongs to Cc1c(O)c(=O)ccn1C1OC(CO)C(O)C1O (stereo not given) ?
Result: inactive

Q: How did this test come out for Cc1cn2c(/C=N/NC(=N)N)c(-c3ccc([N+](=O)[O-])cc3)nc2s1 ?
Result: active

Q: Called result for O=C1C(Cl)=C(Nc2ccc(S(=O)(=O)Nc3ccccn3)cc2)C(=O)c2ccccc21
Result: inactive

Q: Short answer needed: outcome of this test for Cc1cc(=O)oc2cc(O)ccc12 ?
Result: inactive

Q: For O=C(NCCN1C(=O)CN=C(c2ccc(Cl)cc2)c2cc(Cl)ccc21)OCc1ccccc1 , what call appears in the results of this test?
Result: inactive

Q: # fetch the recorded call for O=[N+]([O-])c1ccccc1OCCOc1ccccc1[N+](=O)[O-] here
Result: inactive

Q: What outcome does the record of this test show for CN(CC(=O)O)Cc1c(O)c(Cl)cc(Cl)c1Cl ?
Result: inactive

Q: Could you check what this test reported for O=C1OC(=O)C2C1C1C(c3ccccc3)=C(c3ccccc3)C2(O)C2C(=O)OC(=O)C12 (stereo not given) ?
Result: inactive

Q: How was COc1ccc(C(=O)N(C(=S)OCCOc2ccccc2)c2ccccc2)cc1 classified in this test?
Result: inactive

---

# Tested on: SN12C
# Test Description: NCI tumour cell line growth inhibition, 48 h
Active and inactive are the calls of the source. Rule as the data show it: active = GI50 up to about 1.1 µM and inactive = higher.
Quantity: GI50

Consider the worked cases shown below.
>>> result("O=C(OCc1ccccc1)N1c2cc([N+](=O)[O-])ccc2C(=O)N2CCC[C@H]2C1O (stereo not given in full)")
"> 100 µM (inactive)"
>>> result("CC(=O)c1c2c(cc3c1CC1(Cc4ccccc4C1=O)C3)CCC2 (stereo not given)")
"21.5 µM (inactive)"
>>> result("Cc1nc2c(O)cc3c4c(=O)n(C)c(=O)n(C)c4n(Cc4ccccc4)c3c2nc1C")
"19.9 µM (inactive)"

Answer for every listed entry: what is its GI50? The entries follow.
1. C[Si](C)(C)CNC(=O)OCc1ccccc1
2. Cc1ccc(NC(=O)CC/C(CC(=O)C(C)(C)C)=N/NC(=O)C(N)=O)cc1C

Result:
1. > 100 µM (inactive)
2. > 100 µM (inactive)

---

# Test system: SK-MEL-28
# Test Description: NCI tumour cell line growth inhibition, 48 h
Calls of active or inactive are those of the source. No stated cut-off is given here; in the data, active = GI50 up to about 1.1 µM and inactive = higher.
Permitted responses: Yes = active, No = inactive

Here's what some known entries look like.
>>> class_name("O=C(N/C(=C/c1cccc([N+](=O)[O-])c1)c1nc2cc(Cl)ccc2[nH]1)c1ccccc1")
"No"
>>> class_name("C[C@]12Cc3conc3C(O)=C1CC[C@@H]1C2CC[C@@]2(C)C1CC[C@]2(C)O (stereo not given in full)")
"No"
>>> class_name("NCCCCNCCCNC(=O)c1csc(-c2nc(CCN)sc2Cl)n1")
"No"
>>> class_name("CCOP(=O)(C[S+](C)[O-])O[C@@H]1C[C@H](C)CC[C@H]1C(C)C (stereo not given in full)")
"No"

Please look at the following compound next.
Q: Call for entry CC[C@@]1(O)C(=O)OCc2c1cc1n(c2=O)Cc2c-1nc1ccccc1c2/C=N\NC(=O)C(N)CCSC (stereo not given in full) :
Result: Yes
